- Tested on: Aspergillus flavus
- PROTOCOL: Broth microdilution MIC of individual antifungals
- Type: cell-based
- CONDITION SET: individual antifungal, 25% PDB, about 25° C., 72 hours, range over N independent triplicate studies, read-out: Independent MIC
READOUT KIND: MIC

Give the measured MIC for Nc1ccc2c(c1)COB2O
> 32 µg/mL

Give the measured MIC for CC(C1CC1)C(O)(Cn1cncn1)c1ccc(Cl)cc1 (stereo not drawn)
50 to 100 µg/mL

Give the measured MIC for CC(C)(C)C(O)(CCc1ccc(Cl)cc1)Cn1cncn1 (stereo not drawn)
3 to 3.12 µg/mL

Give the measured MIC for Cc1cc(C)nc(Nc2ccccc2)n1
25 µg/mL

Give the measured MIC for COC(=O)Nc1nc2ccccc2[nH]1
0.78 to 3.12 µg/mL

Give the measured MIC for O=C(NCCc1ncc(C(F)(F)F)cc1Cl)c1ccccc1C(F)(F)F
200 µg/mL

Give the measured MIC for Cc1cc(C2CC2)nc(Nc2ccccc2)n1
0.75 to 1.56 µg/mL

Give the measured MIC for CC#Cc1cc(C)nc(Nc2ccccc2)n1
0.75 µg/mL

Give the measured MIC for CCCC1COC(Cn2cncn2)(c2ccc(Cl)cc2Cl)O1 (stereo not drawn)
6.25 to 12.5 µg/mL
